Hi there, I'd appreciate the recorded pIC50 for every entry that follows.
- test-target: KRAS G12D (Homo sapiens (Human), UniProt P01116+P62937, G12D)
- Sequence (P01116-2 other isoform, or with tags, fused parts or gaps G12D, one chain of several): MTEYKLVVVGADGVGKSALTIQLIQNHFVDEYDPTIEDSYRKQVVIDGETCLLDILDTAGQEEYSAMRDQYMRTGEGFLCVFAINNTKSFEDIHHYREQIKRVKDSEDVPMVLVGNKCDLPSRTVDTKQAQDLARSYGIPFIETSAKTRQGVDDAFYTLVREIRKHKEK
- test-method-notes: Ras-Raf (BRAF RBD) disruption / FRET / MOA assay, KRAS G12D
- Type: biochemical
- settings: Ras-Raf disruption/FRET/MOA assay; class symbols; read-out: KRAS G12D FRET data IC50
pIC50: −log10 of the molar value.

Just so you know, measured pIC50 for C=CC(=O)N1CCO[C@H]2CN(C(=O)N(C)[C@H](C(=O)N[C@H]3Cc4cccc(n4)-c4ccc5c(c4)c(c(-c4cccnc4[C@H](C)OC)n5CC(F)(F)F)CC(C)(C)COC(=O)[C@@H]4CCCN(N4)C3=O)C(C)C)C[C@H]21 (atropisomer, axis not shown) came out at 5.00 to 6.00

Just so you know, measured pIC50 for C=CC(=O)C1C[C@@H](C(=O)N(C)[C@H](C(=O)N[C@H]2Cc3cc(O)cc(c3)-c3ccc4c(n3)c(c(-c3ccccc3CCOC)n4CC)CC(C)(C)COC(=O)[C@@H]3CCCN(N3)C2=O)C(C)C)CN1 (stereo partly shown) came out at < 5.00

Just so you know, measured pIC50 for CCn1c(-c2cccnc2[C@H](C)OC)c2c3cc(ccc31)-c1csc(n1)C[C@H](NC(=O)[C@H](C(C)C)N(C)C(=O)N1C[C@@H]3CN(C(=O)C#CC(C)(C)N(C)C)CC[C@@H]31)C(=O)N1CCC[C@H](N1)C(=O)OCC(C)(C)C2 (atropisomer, axis not shown) came out at 5.00 to 6.00

Just so you know, measured pIC50 for C=CC(=O)N1CC[C@@]2(C1)CN(C(=O)N(C)[C@H](C(=O)N[C@H]1Cc3nc(cs3)-c3ccc4c(c3)c(c(-c3cccnc3[C@H](C)OC)n4CC)CC(C)(C)COC(=O)[C@@H]3CCCN(N3)C1=O)C(C)C)CCO2 (atropisomer, axis not shown) came out at 6.00 to 7.00

----------
- test-target: NRAS Q61R (Homo sapiens (Human), UniProt P01111+P62937, Q61R)
- Sequence (P01111 whole entry Q61R): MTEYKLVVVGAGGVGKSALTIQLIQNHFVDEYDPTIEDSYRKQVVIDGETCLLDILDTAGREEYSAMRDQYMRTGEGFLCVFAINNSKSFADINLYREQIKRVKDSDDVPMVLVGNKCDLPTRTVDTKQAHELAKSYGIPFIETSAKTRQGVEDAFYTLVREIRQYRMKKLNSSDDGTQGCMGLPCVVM
- Sequence (P62937 whole entry): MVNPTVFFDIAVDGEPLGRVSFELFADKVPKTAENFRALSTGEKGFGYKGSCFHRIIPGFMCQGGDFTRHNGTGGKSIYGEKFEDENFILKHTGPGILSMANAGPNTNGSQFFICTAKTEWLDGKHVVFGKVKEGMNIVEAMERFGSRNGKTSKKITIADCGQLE
- test-method-notes: Ras-Raf (BRAF RBD) disruption / FRET / MOA assay, NRAS Q61R
- Assay type: biochemical
- settings: NRAS Q61R; Ras-Raf disruption/FRET/MOA assay; read-out: IC50* NRAS Q61R FRET data
Hi there, I'd appreciate the recorded IC50 for every entry that follows.

Just so you know, measured IC50 for CCn1c(-c2cccnc2[C@H](C)OC)c2c3cc(ccc31)-c1csc(n1)C[C@H](NC(=O)[C@H](C(C)C)N(C)C(=O)N1CCCOC13CN(C(=O)C#CC(C)(C)N(C)C)C3)C(=O)N1CCC[C@H](N1)C(=O)OCC(C)(C)C2 (atropisomer, axis not shown) [Example A666] came out at > 10 µM

Just so you know, measured IC50 for C=CC(=O)N1CC[C@H](C(=O)N2CCCCC[C@H]2C(=O)N[C@H]2Cc3nc(cs3)-c3ccc4c(c3)c(c(-c3cccnc3[C@H](C)OC)n4CC)CC(C)(C)COC(=O)[C@@H]3CCCN(N3)C2=O)C1 (atropisomer, axis not shown) [Example A495] came out at 1 to 10 µM

----------
- test-target: KRAS WT (Homo sapiens (Human), UniProt P01116+P62937)
- Sequence (P01116-2 other isoform, or with tags, fused parts or gaps): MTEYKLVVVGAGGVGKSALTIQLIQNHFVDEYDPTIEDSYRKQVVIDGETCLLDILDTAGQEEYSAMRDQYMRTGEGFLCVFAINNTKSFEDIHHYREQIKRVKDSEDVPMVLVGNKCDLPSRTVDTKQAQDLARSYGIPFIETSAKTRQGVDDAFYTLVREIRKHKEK
- Sequence (P62937 whole entry): as the sequence (P62937 whole entry) above
- test-method-notes: Ras-Raf (BRAF RBD) disruption / FRET / MOA assay, KRAS WT
- Assay type: biochemical
- settings: read-out: IC50* KRAS WT FRET data
property-name: IC50

Tested on KRAS WT (Homo sapiens (Human), UniProt P01116+P62937), the item C=CC(=O)N1CCCN(C(=O)N(C)[C@H](C(=O)N[C@H]2Cc3nc(cs3)-c3ccc4c(c3)c(c(-c3cccnc3[C@H](C)OC)n4CC)CC(C)(C)COC(=O)[C@@H]3CCCN(N3)C2=O)C(C)C)CC1 (atropisomer, axis not shown) [Example A436] showed IC50 equal to 0.01 to 0.1 µM

Tested on KRAS WT (Homo sapiens (Human), UniProt P01116+P62937), the item CCn1c(-c2cccnc2[C@H](C)OC)c2c3cc(ccc31)-c1cccc(c1)C[C@H](NC(=O)[C@H](C(C)C)N1CCC3(CN(C(=O)C#CC(C)(C)N(C)C)C3)C1=O)C(=O)N1CCC[C@H](N1)C(=O)OCC(C)(C)C2 (atropisomer, axis not shown) [Example A324] showed IC50 equal to 1 to 10 µM

Tested on KRAS WT (Homo sapiens (Human), UniProt P01116+P62937), the item CC#CC(=O)N1C[C@H](C)[C@H](C(=O)N(C)[C@H](C(=O)N[C@H]2Cc3cccc(c3)-c3ccc4c(c3)c(c(-c3cccnc3[C@H](C)OC)n4CC)CC(C)(C)COC(=O)[C@@H]3CCCN(N3)C2=O)C(C)C)C1 (atropisomer, axis not shown) [Example A413] showed IC50 equal to 1 to 10 µM

Tested on KRAS WT (Homo sapiens (Human), UniProt P01116+P62937), the item C=CC(=O)N1CC[C@H](C(=O)N(C)[C@H](C(=O)N[C@H]2CN3CCC=C(C3)c3ccc4c(c3)c(c(-c3cccnc3[C@H](C)OC)n4CC)CC(C)(C)COC(=O)[C@@H]3CCCN(N3)C2=O)C(C)C)C1 (atropisomer, axis not shown) [Example A716] showed IC50 equal to 1 to 10 µM

Tested on KRAS WT (Homo sapiens (Human), UniProt P01116+P62937), the item C=CC(=O)C1C[C@@H](C(=O)N(C)[C@H](C(=O)N[C@H]2Cc3cc(O)cc(c3)-c3ccc4c(c3)c(c(-c3ccccc3CCOC)n4CC)CC(C)(C)COC(=O)[C@@H]3CCCN(N3)C2=O)C(C)C)[C@@H](OC)N1 (some centres unmarked) [Example A214] showed IC50 equal to 1 to 10 µM

Tested on KRAS WT (Homo sapiens (Human), UniProt P01116+P62937), the item C=CC(=O)N(C)CCN1CCN(C(=O)N(C)[C@H](C(=O)N[C@H]2Cc3cccc(c3)-c3ccc4c(c3)c(c(-c3cccnc3[C@H](C)OC)n4CC)CC(C)(C)COC(=O)[C@@H]3CCCN(N3)C2=O)C(C)C)C[C@@H]1C (atropisomer, axis not shown) [Example A570] showed IC50 equal to 0.1 to 1 µM

Tested on KRAS WT (Homo sapiens (Human), UniProt P01116+P62937), the item CCn1c(-c2cccnc2[C@H](C)OC)c2c3cc(ccc31)-c1cccc(c1)C[C@H](NC(=O)[C@H](C(C)C)N(C)C(=O)[C@H]1CCN(C(=O)/C=C/CN3CC(OC)C3)C1)C(=O)N1CCC[C@H](N1)C(=O)OCC(C)(C)C2 (atropisomer, axis not shown) [Example A203] showed IC50 equal to > 10 µM

Tested on KRAS WT (Homo sapiens (Human), UniProt P01116+P62937), the item C=CC(=O)N1CC[C@](F)(C(=O)N(C)[C@H](C(=O)N[C@H]2Cc3cccc(c3)-c3ccc4c(c3)c(c(-c3cccnc3[C@H](C)OC)n4CC)CC(C)(C)COC(=O)[C@@H]3CCCN(N3)C2=O)C(C)C)C1 (atropisomer, axis not shown) [Example A501] showed IC50 equal to 0.1 to 1 µM
